Here the recorded half-life is given for each entry.
assay: Half life in Sprague-Dawley rat at 3 mg/kg, po; format: ADME, organism-based; parameters: dose 3 mg/kg, route oral; conditions: in vivo
Answer in min, number only, no unit symbol.

Known results for molecules:
CN(C)C(=O)N1C[C@@H]2C[C@@](C)(NCC(=O)N3CCC[C@H]3C#N)C[C@@H]2C1 = 54
CN(C)C(=O)N1C[C@H]2C[C@@H](NCC(=O)N3CCC[C@H]3C#N)C[C@H]2C1 = 56.4

Please turn your attention to the following entry.
Input: What does the record list as half-life for `CN(C)C(=O)N1C[C@@H]2C[C@](C)(NCC(=O)N3CCC[C@H]3C#N)C[C@@H]2C1` ?
Output: 195
